Values from patent US11434232B2

# Assay comment: Pharmacokinetic properties in vivo in female Balb/c Nude mice
# Parameters: species or system mouse
# Recorded conditions: mouse, plasma, 25 mg/kg oral gavage
Measure name: Cmax
Please state the value followed by its unit.

Prompt: Annotate the compound Cc1nnc(C)n1-c1cc(N2CCOC[C@H]2C)nc(-c2cc(F)cc3[nH]ccc23)n1 [WX46] with its measured Cmax.
Response: 10.6 µM

###

# Assay comment: Pharmacokinetic properties in vivo in female Balb/c Nude mice
# Parameters: species or system mouse
# Recorded conditions: mouse, plasma, 25 mg/kg oral gavage
Measure name: AUC(0-t) (µM·h)
One number for each entry, in µM·h.

Prompt: Annotate the molecule Cc1nnc(C)n1-c1cc(N2CCOC[C@H]2C)nc(-c2cc(F)cc3[nH]ccc23)n1 [WX46] with its measured AUC(0-t).
Response: 26.2
